- System: Staphylococcus aureus (3R7089 strain Oxford/ATCC9144)
- Type: cell-based
- assay-conditions: ATCC9144, 16 h
Square brackets hold non-standard residues; d marks the D form. Peptide text beside a SMILES is read from it. Gly(N-(CH2)6NH2) = NCCCCCCNCC(=O)O; Nphe = O=C(O)CNCc1ccccc1; Nlys = NCCCCNCC(=O)O
Give MIC S. aureus for every item shown.

Entry under review: NCCCCCCNCC(=O)N(CC(=O)N(CC(=O)N(CCCCCCN)CC(=O)N(CC(=O)N(CC(N)=O)Cc1ccccc1)Cc1ccccc1)Cc1ccccc1)Cc1ccccc1 [Peptoid 3, (NahNpheNphe)2] (H-[Gly(N-(CH2)6NH2)][Nphe][Nphe][Gly(N-(CH2)6NH2)][Nphe][Nphe]-NH2) . Reported MIC S. aureus?
>100 µM

Entry under review: NCCCCNCC(=O)N(CC(=O)N(CC(=O)N(CCCCN)CC(=O)N(CC(=O)N(CC(N)=O)Cc1ccccc1)Cc1ccccc1)Cc1ccccc1)Cc1ccccc1 [Peptoid 6, (NLysNpheNphe)2] (H-[Nlys][Nphe][Nphe][Nlys][Nphe][Nphe]-NH2) . Reported MIC S. aureus?
>100 µM
